Molecular target: T1, HBsAg AY serotype (Hepatitis B virus)
T1 construct: also called HBsAg serotype AY
Experiment: SPR Biacore T200, HBsAg particles immobilized, antibody as analyte, 1:1 fit;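 also: Anti-HBsAg antibodies assessed for binding against both major HBsAg serotypes, AY and AD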
pKd: −log10 of the molar value.
Quick list: pKd per entry.

Binder	pKd
NOV3834 (antibody, human IgG1, kappa, V domains shown, Full human IgG1 (kappa) expressed in CHO cells) VH: QVQLVESGGGVVQPGRSLRLSCAASGFTFNRYGMHWVRQAPGKGLEWVAGIWHDGSHKYYADSLRGRFTISRDNAKNTLDLQLNRLRAEDTSVYYCVRQTNRGRLDDAFDIWGQGTMVTVSS VL: DIQMTQSPSSLSAAVGDRVTISCRASQTISSYLNWYQQKPGEAPKLLIYAASTLQSGVPSRFGGSGSGTDFTLTISSLQPEDSATYYCQQNYDTLWTFGQGTKVEIKR	8.28
NOV3840 (antibody, human IgG1, lambda, V domains shown, Full human IgG1 (lambda) expressed in CHO cells) VH: EVQLLESGGGLVQPGGSRRLSCAASGFTFSYYGMNWVRQAPGKGLEWVSGITNSGSITYYADSVKGRFSISRDNSKNTLFLQMNSLRAEDTAVYYCAKVGVRSSSGMWDLDYWGQGTLVTVSS VL: SYVLTQPPSVSVAPGQTARLSCGGNNIGSKSLQWYQQKPGQAPVLVVNDDSDRPSGIPERFSGSNSGNTATLTISRVEAGDEADYYCQVWDTSSDHVVFGGGTKLTVLG	9.42
NOV3831 (antibody, human IgG1, lambda, V domains shown, Full human IgG1 (lambda) expressed in CHO cells) VH: EMQVLESGGGLVQPGGSLRLSCAASGFTFNNYAMSWVRQVPGKGLEWVSSISGSGGSTYYADSVKGQFTISRDNSKNTLYLQMNSLRAEDTAVYYCAKSSILSGGHARVYGIDVWGQGTTVTVSS VL: QSALTQPPSVSVAPGQTARITCGGNNIGSQSVHWYQQKPGQAPILVVYDDTDRPSGIPARFSGSSSGSTATLTIGRVEAGDEADYYCQVWDSSSDHVVFGGGTKLTVLS	9.23
NOV3842 (antibody, human IgG1, lambda, V domains shown, Full human IgG1 (lambda) expressed in CHO cells) VH: EVQLLESGGGLVQPGGSRRLSCAASGFTFSYYGMNWVRQAPGKGLEWVSGITNVGSITYYADTVKGRFSISRDNSKNTLFLQMNSLRAEDTAVYYCAKVGVRSSSGMWDLDYWGQGTLVTVSS VL: SYVLTQPPSVSVAPGQTARLSCGGNNIGSKSLQWYQQKPGQAPVLVVNDESDRPSGIPERFSGSNSGNTATLTISRVEAGDEADYYCQVWDTSSDHVVFGGGTKLTVLG	9.82
NOV3832 (antibody, human IgG1, lambda, V domains shown, Full human IgG1 (lambda) expressed in CHO cells) VH: EMQVLESGGGLVQPGGSLRLSCAASGFTFDNYAMSWVRQVPGKGLEWVSSISGSGGSTYYADSVKGQFTISRDNSKNTLYLQMNSLRAEDTAVYYCAKSSILSGGHARVYGIDVWGQGTTVTVSS VL: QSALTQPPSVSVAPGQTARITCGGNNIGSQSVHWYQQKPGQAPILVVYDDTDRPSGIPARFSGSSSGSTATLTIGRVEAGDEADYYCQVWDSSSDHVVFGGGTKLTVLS	9.40
